# Test system: HCT-15 colon
# Assay Name: NCI-60 one-dose screen, 48 h (100 = growth as untreated, 0 = no growth, -100 = all killed)
# Assay Context: 10 µM unless noted
This is part of a sample that, as a whole, favours compounds with a hit. Of some 83,000 tested, about 20% had one in any assay.
Measure Name: growth (%)
Please reply with the bare figure in % and do not write the unit itself.

C=C1C(=O)O[C@H]2[C@H]1CC/C(COC(=O)n1ccnc1)=C\CC[C@@]1(C)O[C@@H]21
83.5
CNCc1cccc2c1OCCOCCOCCN(CCN1CCOCC1)S(=O)(=O)c1ccc(cc1)-c1cnc(N)c(n1)C(=O)N2
74.8
COCCOC(=O)COc1ccc(OC)cc1
98.1

Enquiry: Fill blank: measured growth of the compound Cn1cc(-c2ccc3c(c2)ncn3-c2ccc(CC(=O)Nc3cc(C(C)(C)C)on3)cc2)cn1 is ____.
Return: 16.1

Enquiry: Queued: COC1=CC2C=C(C3N(c4ccccc4)NC(=O)[C@@H]4CCCN34)C(=O)NC2C=C1 (stereo not given in full)
Return: 101

The measured values listed here are drawn from PubChem BioAssay (NCI).
